- MEASUREMENT DESCRIPTION: Food effect on relative bioavailability of 480 mg FDV, two-period crossover (Part 2)
- Format: in vivo, human
- EXPERIMENTAL CONDITIONS: male, human, plasma, oral, 480 mg, FDV 480 mg/fasted; mean (CV%), N = 7
PROPERTY MEASURED: AUC(0-t) (ng·h/mL)

• C=C[C@@H]1C[C@]1(NC(=O)[C@@H]1C[C@@H](Oc2cc(-c3csc(NC(=O)C(C)C)n3)nc3c(Br)c(OC)ccc23)CN1C(=O)[C@@H](NC(=O)OC1CCCC1)C(C)(C)C)C(=O)O = 83400

====

- MEASUREMENT DESCRIPTION: Single ascending dose plasma pharmacokinetics (Part 1)
- Type: in vivo, human
- EXPERIMENTAL CONDITIONS: male, human, plasma, po, 800 mg; read-out: AUC0–∞
PROPERTY MEASURED: AUC(0-inf) (µg·h/mL)

* C=C[C@@H]1C[C@]1(NC(=O)[C@@H]1C[C@@H](Oc2cc(-c3csc(NC(=O)C(C)C)n3)nc3c(Br)c(OC)ccc23)CN1C(=O)[C@@H](NC(=O)OC1CCCC1)C(C)(C)C)C(=O)O [FDV, Faldaprevir] | 128

====

- MEASUREMENT DESCRIPTION: Single ascending dose plasma pharmacokinetics (Part 1)
- Format: in vivo, human
- EXPERIMENTAL CONDITIONS: male, human, plasma, po, 1200 mg, FDV 1,200 mg single oral dose, fasted; gMean (gCV%); read-out: t½ (converted)
- Description: One dose level was tested within each group. Subject groups were dosed and evaluated sequentially, beginning with the lowest-dose group and proceeding stepwise to the highest-dose group. Blood samples were taken pre-dose (0) and at prespecified time points after dosing (Figure 1). At each time point, approximately 4.9 mL of blood was drawn into evacuated collection tubes, containing ethylene diamine tetraacetate (EDTA) anticoagulant and labeled with sample identification information. […]
PROPERTY MEASURED: half-life

* C=C[C@@H]1C[C@]1(NC(=O)[C@@H]1C[C@@H](Oc2cc(-c3csc(NC(=O)C(C)C)n3)nc3c(Br)c(OC)ccc23)CN1C(=O)[C@@H](NC(=O)OC1CCCC1)C(C)(C)C)C(=O)O | ~16 h

====

- MEASUREMENT DESCRIPTION: Single ascending dose plasma pharmacokinetics (Part 1)
- Assay type: in vivo, human
- EXPERIMENTAL CONDITIONS: male, human, plasma, po, 4 mg, FDV 4 mg single oral dose, fasted; gMean (gCV%); read-out: t½ (converted)
PROPERTY MEASURED: half-life

• C=C[C@@H]1C[C@]1(NC(=O)[C@@H]1C[C@@H](Oc2cc(-c3csc(NC(=O)C(C)C)n3)nc3c(Br)c(OC)ccc23)CN1C(=O)[C@@H](NC(=O)OC1CCCC1)C(C)(C)C)C(=O)O = ~39 h

====

- MEASUREMENT DESCRIPTION: Single ascending dose plasma pharmacokinetics (Part 1)
- Format: in vivo, human
- EXPERIMENTAL CONDITIONS: male, human, plasma, po, 16 mg, FDV 16 mg single oral dose, fasted; gMean (gCV%); read-out: t½ (converted)
PROPERTY MEASURED: half-life (h)

* C=C[C@@H]1C[C@]1(NC(=O)[C@@H]1C[C@@H](Oc2cc(-c3csc(NC(=O)C(C)C)n3)nc3c(Br)c(OC)ccc23)CN1C(=O)[C@@H](NC(=O)OC1CCCC1)C(C)(C)C)C(=O)O | 31.8
